- System: CP329
- method: qHTS profiling for inhibitors of Plasmodium falciparum proliferation (AID 504749); further: nearly all actives have a fitted effect of over 60% in size
- statedConditions: P. falciparum in erythrocytes, SYBR Green DNA, 72 h; series mostly up to 28.7 µM
Inconclusive results are not listed. Active and inactive are the calls of the source. The call rests on the fitted dose curve; in most records, active means well fitted inhibition curve with a large enough effect; inconclusive means small, poorly fitted or top-dose-only effect; inactive means flat fitted curve, though single readings scatter.
testReadout: outcome

Look over these answered cases.
- molecule: "NC(=O)c1ccccc1O"
  outcome: "inactive"
- molecule: "CC(=O)Nc1ccc(CC(=O)O)cc1"
  outcome: "inactive"
- molecule: "COc1cc(C(=O)NCc2ccc(OCCN(C)C)cc2)cc(OC)c1OC"
  outcome: "inactive"
- molecule: "O=C(NCCc1c[nH]c2ccccc12)c1cccnc1"
  outcome: "inactive"
- molecule: "CC(=O)Nc1ccc(S(=O)(=O)Nc2ccc([N+](=O)[O-])cc2)cc1"
  outcome: "inactive"

Input line: // returns reported outcome for input O=C(CCN1CCN2CCCC2C1)N1c2ccccc2Sc2ccc(Cl)cc21 (stereo unspecified)
Output line: inactive

====

- Test system: DIV30
- method: qHTS profiling for inhibitors of Plasmodium falciparum proliferation (AID 504749); further: nearly all actives have a fitted effect of over 60% in size
- statedConditions: P. falciparum in erythrocytes, SYBR Green DNA, 72 h; series mostly up to 28.7 µM
Inconclusive results are not listed. Calls of active or inactive are those of the source. The call rests on the fitted dose curve; in most records, active means well fitted inhibition curve with a large enough effect; inconclusive means small, poorly fitted or top-dose-only effect; inactive means flat fitted curve, though single readings scatter.
Can you answer with just one of these options? y = active, n = inactive

Solved cases below.
- molecule: "C[C@@H](O)[C@H]1C(=O)N2C(C(=O)O)=C(S[C@@H]3CN[C@H](CNS(N)(=O)=O)C3)[C@H](C)[C@H]12"
  assignedClass: "n"
- molecule: "O=S(=O)(O)c1ccc(O)cc1"
  assignedClass: "n"
- molecule: "O=C(O)C1(C(=O)O)CCC1.[NH2-].[NH2-].[Pt+2]"
  assignedClass: "n"
- molecule: "CC(C)Cn1cnc2c1c(=O)n(C)c(=O)n2C"
  assignedClass: "n"
- molecule: "CCCCCCCCCCCCOCCOCCOCCOCCOCCOCCOCCOCCOCCO"
  assignedClass: "n"
- molecule: "NC(N)=NCc1cccc(I)c1"
  assignedClass: "n"
- molecule: "C#C[C@]1(O)CC[C@H]2[C@@H]3CCC4=CC(=O)CC[C@@H]4[C@H]3CC[C@@]21CC"
  assignedClass: "n"
- molecule: "CCCCNc1ccc(C(=O)OCCOCCOCCOCCOCCOCCOCCOCCOCCOC)cc1"
  assignedClass: "n"
- molecule: "O=C(O)C(Cc1cc(I)c(O)c(I)c1)c1ccccc1 (stereo not given)"
  assignedClass: "n"
- molecule: "CN(Cc1ccc(C(C)(C)C)cc1)Cc1cccc2ccccc12"
  assignedClass: "n"

Input line: For this molecule, state the assay outcome: OCCOCCN1CCN(C2=Nc3ccccc3Sc3ccccc32)CC1
Output line: n

Input line: For this molecule, state the assay outcome: C/C=C/C=N/NC(=O)c1ccncc1
Output line: n

Input line: For this molecule, state the assay outcome: N#CCC(=O)NN
Output line: n

Input line: For this molecule, state the assay outcome: COc1cc(C(=S)N2CCOCC2)ccc1O
Output line: n

Input line: For this molecule, state the assay outcome: COc1cc(C(=O)NCc2ccc(OCCN(C)C)cc2)cc(OC)c1OC
Output line: n

====

- method: qHTS of pediatric cancer cell lines to identify multiple opportunities for drug repurposing: Primary screen for SK-N-SH cells (AID 1347098); further: nearly all actives have a fitted effect of over 65% in size
- statedConditions: SK-N-SH viability, CellTiter-Glo luminescence, 48 h; series mostly up to 57 µM
Inconclusive results are not listed. The source made the active and inactive calls. The call rests on the fitted dose curve; in most records, active means well fitted cell-killing curve with a large enough effect; inconclusive means small, poorly fitted or top-dose-only effect; inactive means no such curve, though single readings can be large or run the other way.
Can you answer with just one of these options? active, inactive

- compound: "CC(C)CCCC(C)N (stereo unspecified)"
  assignedClass: "inactive"
- compound: "CC(=O)NC(=O)c1ccccc1O"
  assignedClass: "inactive"
- compound: "CC(C)(C)NC[C@H](O)COc1nsnc1N1CCOCC1"
  assignedClass: "inactive"
- compound: "CCCCCCCCCCCCOCCOCCOCCOCCOCCOCCOCCOCCOCCO"
  assignedClass: "inactive"
- compound: "Cc1ccccc1OCC(O)CO (stereo unspecified)"
  assignedClass: "inactive"
- compound: "COc1cc([C@H]2Oc3cc([C@H]4Oc5cc(O)cc(O)c5C(=O)[C@@H]4O)ccc3O[C@@H]2CO)ccc1O"
  assignedClass: "inactive"

Input line: For this compound, state the assay outcome: CCCCCCCCCCCCCCCCO
Output line: inactive

Input line: For this compound, state the assay outcome: CCCN(CCc1cccs1)[C@H]1CCc2c(O)cccc2C1
Output line: inactive

Input line: For this compound, state the assay outcome: CCCCNC(=O)NS(=O)(=O)c1ccc(N)cc1
Output line: inactive

Input line: For this compound, state the assay outcome: CCOc1ccc(NC(C)=O)cc1
Output line: inactive

Input line: For this compound, state the assay outcome: OC(C#CCN1CCCC1)(c1ccccc1)c1ccccc1
Output line: inactive

Input line: For this compound, state the assay outcome: CC(CNC1CCCCC1)OC(=O)c1ccccc1 (stereo unspecified)
Output line: inactive

Input line: For this compound, state the assay outcome: c1ccc(CC2=NCCN2)cc1
Output line: inactive

Input line: For this compound, state the assay outcome: C[N+]12CCC(CC1)C(OC(=O)C(O)(c1ccccc1)c1ccccc1)C2 (stereo unspecified)
Output line: inactive

Input line: For this compound, state the assay outcome: CN1CCN(c2cc3c(cc2F)c(=O)c(C(=O)O)cn3-c2ccc(F)cc2)CC1
Output line: inactive

Input line: For this compound, state the assay outcome: CC(=O)NCCCCCC(=O)O
Output line: inactive

Input line: For this compound, state the assay outcome: Nc1ccc(S(=O)(=O)Nc2cnc3ccccc3n2)cc1
Output line: inactive

Input line: For this compound, state the assay outcome: CC(C)n1c(/C=C/[C@@H](O)C[C@@H](O)CC(=O)O)c(-c2ccc(F)cc2)c2ccccc21
Output line: active

Input line: For this compound, state the assay outcome: O=C(O)Cc1csc(-c2ccc(Cl)cc2)n1
Output line: inactive

Input line: For this compound, state the assay outcome: O=C1C(O)=C(O)C(=O)C(O)=C1O
Output line: inactive

Input line: For this compound, state the assay outcome: COc1ccc(S(=O)(=O)N2c3ccc(Cl)cc3[C@@](O)(c3ccccc3Cl)[C@H]2C(=O)N2CCC[C@@H]2C(N)=O)cc1OC
Output line: inactive

Input line: For this compound, state the assay outcome: CC(C(=O)O)c1cccc(Oc2ccccc2)c1 (stereo unspecified)
Output line: inactive
